The values you see were collected from paper PMC6713100.

System: MDA-MB-453, SNU-423 and RT-112
Assay: CCK8 antiproliferative assay, all three cancer cells
Type: cell-based
Conditions: CCK8, 48 h; read-out: IC50 against all three cancer cells
The reader will find reported IC50 values listed item by item below.

molecule	IC50
COc1cc(N(CCCBr)S(=O)(=O)c2cccc3cccnc23)cc(OC)c1OC	> 40 µM

# context switch: different compound, same IC50
Query: Answer with reported IC50 of `COc1cc(NS(=O)(=O)c2cccc3cccnc23)cc(OC)c1OC`
Reply: > 40 µM
